- Tested on: 439559-082-T-J2-PDC spheroid viability
- Procedure details: Anticancer human tumor 439559-082-T-J2-PDC patient-derived colon adenocarcinoma cell line growth inhibition [POLQ]
- Condition info: second compound 0.1 µM; first compound 3.16 µM; stronger effect = lower value; spheroids with HUVEC and MSC
Measured viability, T/C, listed per entry for reference.
Record the value in %, omitting the unit from your answer.

| Compound | Unit spec | viability, T/C |
| --- | --- | --- |
| CCc1cc2c(N3CCc4c(cc(Cn5ccnc5)cc4-c4cn(C)nc4C(F)(F)F)C3=O)cc(C)nc2c(OC)n1 + Cc1cccc(N(C)C(=O)C2C(O)CCN2c2nc(C)cc(C(F)(F)F)c2C#N)c1 | % | 111 |
| COc1ccc([C@@H](O)c2cc(-c3ncnc4cc(N5CCOCC5)ccc34)c(F)cc2Cl)nn1 + COC1C(OC(N)=O)C(O)C(Oc2ccc3c(O)c(NC(=O)c4ccc(O)c(CC=C(C)C)c4)c(=O)oc3c2C)OC1(C)C | % | 83.3 |
| COc1cc2cc(C(=O)CCC(=O)O)sc2cc1OC + COC1C(OC(N)=O)C(O)C(Oc2ccc3c(O)c(NC(=O)c4ccc(O)c(CC=C(C)C)c4)c(=O)oc3c2C)OC1(C)C | % | 111 |
| CCCS(=O)(=O)Nc1ccc(F)c(C(=O)c2c[nH]c3ncc(-c4ccc(Cl)cc4)cc23)c1F + COC1C(OC(N)=O)C(O)C(Oc2ccc3c(O)c(NC(=O)c4ccc(O)c(CC=C(C)C)c4)c(=O)oc3c2C)OC1(C)C | % | 100 |

Task item: Please provide the recorded viability, T/C for O=C(c1cc(Cc2n[nH]c(=O)c3ccccc23)ccc1F)N1CCN(C(=O)C2CC2)CC1 + Cc1cccc(N(C)C(=O)C2C(O)CCN2c2nc(C)cc(C(F)(F)F)c2C#N)c1 , tested on 439559-082-T-J2-PDC spheroid viability.
Reply: 94.4

Task item: Please provide the recorded viability, T/C for CC1COCCN1c1cc(C2(O)CC3CCC(C2)O3)c2cnn(-c3ccn[nH]3)c2n1 (stereo not given) + Cc1cccc(N(C)C(=O)C2C(O)CCN2c2nc(C)cc(C(F)(F)F)c2C#N)c1 , tested on 439559-082-T-J2-PDC spheroid viability.
Reply: 49.3

Task item: Please provide the recorded viability, T/C for COc1cccc2c1C(=O)c1c(O)c3c(c(O)c1C2=O)CC(O)(C(=O)CO)CC3OC1CC(N)C(O)C(C)O1 (stereo not given) + COC1C(OC(N)=O)C(O)C(Oc2ccc3c(O)c(NC(=O)c4ccc(O)c(CC=C(C)C)c4)c(=O)oc3c2C)OC1(C)C , tested on 439559-082-T-J2-PDC spheroid viability.
Reply: 59.9

Task item: Please provide the recorded viability, T/C for C=CC(=O)N1CCN(c2nc(=O)n(-c3c(C)ccnc3C(C)C)c3nc(-c4c(O)cccc4F)c(F)cc23)C(C)C1 (stereo not given) + Nc1ccc(C#CCN(C(=O)Cc2ncc(C(F)(F)F)cc2C(F)(F)F)c2ccc(F)cc2)nn1 , tested on 439559-082-T-J2-PDC spheroid viability.
Reply: 115

Task item: Please provide the recorded viability, T/C for O=c1[nH]cc(F)c(=O)[nH]1 + Cc1cccc(N(C)C(=O)C2C(O)CCN2c2nc(C)cc(C(F)(F)F)c2C#N)c1 , tested on 439559-082-T-J2-PDC spheroid viability.
Reply: 73.4

Task item: Please provide the recorded viability, T/C for CCc1cc2c(N3CCc4c(cc(Cn5ccnc5)cc4-c4cn(C)nc4C(F)(F)F)C3=O)ccnc2c(OC)n1 + COC1C(OC(N)=O)C(O)C(Oc2ccc3c(O)c(NC(=O)c4ccc(O)c(CC=C(C)C)c4)c(=O)oc3c2C)OC1(C)C , tested on 439559-082-T-J2-PDC spheroid viability.
Reply: 99.2

Task item: Please provide the recorded viability, T/C for COc1cc(C2c3cc4c(cc3C(OC3OC5COC(C)OC5C(O)C3O)C3COC(=O)C23)OCO4)cc(OC)c1O (stereo not given) + COC1C(OC(N)=O)C(O)C(Oc2ccc3c(O)c(NC(=O)c4ccc(O)c(CC=C(C)C)c4)c(=O)oc3c2C)OC1(C)C , tested on 439559-082-T-J2-PDC spheroid viability.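 Further: spheroids exposed to compounds for seven days before readout; 100% = DMSO vehicle control viability.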
Reply: 92.7

Task item: Please provide the recorded viability, T/C for CC(C)n1c(=O)n(C)c2cnc3cc(F)c(-c4ccc(OCCCN5CCCCC5)nc4)cc3c21 + Nc1ccc(C#CCN(C(=O)Cc2ncc(C(F)(F)F)cc2C(F)(F)F)c2ccc(F)cc2)nn1 , tested on 439559-082-T-J2-PDC spheroid viability.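 Further: spheroids exposed to compounds for seven days before readout; 100% = DMSO vehicle control viability.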
Reply: 102

Task item: Please provide the recorded viability, T/C for CCCS(=O)(=O)Nc1ccc(F)c(C(=O)c2c[nH]c3ncc(-c4ccc(Cl)cc4)cc23)c1F + Cc1cccc(N(C)C(=O)C2C(O)CCN2c2nc(C)cc(C(F)(F)F)c2C#N)c1 , tested on 439559-082-T-J2-PDC spheroid viability.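 Further: spheroids exposed to compounds for seven days before readout; 100% = DMSO vehicle control viability.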
Reply: 113

Task item: Please provide the recorded viability, T/C for CC(C)n1c(=O)n(C)c2cnc3cc(F)c(-c4ccc(OCCCN5CCCCC5)nc4)cc3c21 + COC1C(OC(N)=O)C(O)C(Oc2ccc3c(O)c(NC(=O)c4ccc(O)c(CC=C(C)C)c4)c(=O)oc3c2C)OC1(C)C , tested on 439559-082-T-J2-PDC spheroid viability.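 Further: spheroids exposed to compounds for seven days before readout; 100% = DMSO vehicle control viability.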
Reply: 102

Cited source: PubChem BioAssay AID1963841
